# system-tested: human melanocortin-4 receptor (recombinant hMC4-R) (human, UniProt P32245 1-332)
# Sequence (P32245 whole entry): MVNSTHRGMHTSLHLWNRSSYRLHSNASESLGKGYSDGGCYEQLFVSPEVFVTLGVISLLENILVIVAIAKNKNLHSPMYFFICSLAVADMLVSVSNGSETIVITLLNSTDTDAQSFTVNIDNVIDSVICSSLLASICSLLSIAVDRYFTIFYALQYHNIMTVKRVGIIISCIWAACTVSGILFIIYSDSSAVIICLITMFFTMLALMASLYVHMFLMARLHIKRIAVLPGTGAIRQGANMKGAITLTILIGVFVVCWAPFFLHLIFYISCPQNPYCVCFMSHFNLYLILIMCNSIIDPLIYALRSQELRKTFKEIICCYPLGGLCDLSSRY
# assay-explanation: cell-based or functional assay
Bridge positions count the residues as written; N and C are the ends. Square brackets hold non-standard residues; d marks the D form. Orn = NCCC[C@H](N)C(=O)O; Dab = NCC[C@H](N)C(=O)O
readout-type: Emax (%), cAMP

1. Ac-RD[Dab][dF]RWK-NH2 (lactam 2-7) [Asp...Lys analog of peptides No. 6 and No. 43: Ac-Arg-cyclo(Asp-Dab-D-Phe-Arg-Trp-Lys)-NH2]
91
2. Ac-R[Orn][Dab][dF]RWE-NH2 (lactam 2-7) [Peptide No. 43: Ac-Arg-cyclo(Orn-Dab-D-Phe-Arg-Trp-Glu)-NH2]
103
3. Ac-R[Orn][Dab][dF]RWE-OH (lactam 2-7) [Peptide No. 42: Ac-Arg-cyclo(Orn-Dab-D-Phe-Arg-Trp-Glu)-OH]
100
4. Ac-RDH[dF]RWK-OH (lactam 2-7) [Asp...Lys analog of peptides No. 3 and No. 37: Ac-Arg-cyclo(Asp-His-D-Phe-Arg-Trp-Lys)-OH]
91
